The reported numbers originate from PubChem BioAssay AID1159580.

- protocol text: chemical genetic growth profiling, strain panel (AID 1159580);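 note: tested at 20 µM; growth read once vehicle control cultures reached saturation at 30 °C; 1 = growth at the plate median or of vehicle wells; lower values mean less growth of the strain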
- reported conditions: S. cerevisiae deletion strains, growth OD, locus YPL204W, strain HRR25, stronger effect = lower value
Among all 5,500 compounds or so, about 2,000 (36%) were called active. Roughly 18% stayed inconclusive and do not appear here. This is one part of the list.
The entries below are paired with their reported normalized growth.
Reply: number alone, nothing else.

N/C(=N/OC(=O)c1ccccc1Cl)c1ccc2nonc2c1 = 0.95
CCCCCc1ccc(S(=O)(=O)Nc2ncc(C)cc2Br)cc1 = 0.843
O=C1CSC(=Nc2cc(Cl)cc(Cl)c2)N1Cc1cccnc1 = 0.944
Cc1nc(C(F)(F)F)ccc1C(=O)Sc1nnc(-c2ccc(C(F)(F)F)nc2C)o1 = 0.934
CCC1(c2ccccc2)OC(c2cc(Cl)cc(Cl)c2O)Nc2ccccc21 (centres undefined) = 0.604

Entry C(=NC(N=Cc1ccccc1)c1ccccc1)c1ccccc1 (centres undefined) : reported normalized growth = ?
0.976

Entry O=C1OC(Nc2ccccc2SCc2ccccc2Cl)c2ccccc21 (centres undefined) : reported normalized growth = ?
0.882

Entry `N#CC(C#N)=NNc1cc(C(F)(F)F)ccc1OCC(F)(F)F` : reported normalized growth = ?
0.688

Entry `CN(NC(=S)Nc1cc(Cl)ccc1Cl)c1ccc(C(F)(F)F)cc1[N+](=O)[O-]` : reported normalized growth = ?
0.911

Entry CC(NC(=S)Nc1ccc(Oc2ccc(Cl)cc2)cc1)c1ccccc1 (centres undefined) : reported normalized growth = ?
0.899

Entry `Cc1ccc(C(=O)Nc2ccc3ccccc3n2)cc1` : reported normalized growth = ?
0.937

Entry `N#C/C(=N/Nc1ccc(Cl)cc1)C(=O)C1CC1` : reported normalized growth = ?
0.554

Entry `N#Cc1c(N)sc2c1CCc1ccccc1-2` : reported normalized growth = ?
0.491

Entry `O=C(Nc1ccc(Cl)cc1)c1csc([N+](=O)[O-])c1` : reported normalized growth = ?
0.757

* * *

- protocol text: chemical genetic growth profiling, strain panel (AID 1159580);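 note: tested at 20 µM; growth read once vehicle control cultures reached saturation at 30 °C; 1 = growth at the plate median or of vehicle wells; lower values mean less growth of the strain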
- reported conditions: S. cerevisiae deletion strains, growth OD, locus YNL307C, strain MCK1, stronger effect = lower value
Among all 5,500 compounds or so, about 2,000 (36%) were called active. Inconclusive results (about 18%) are left out. The list shows a part of the results.
observed property: normalized growth
Reply: number alone, nothing else.

Check out these entries, answers already filled in.
COC(=O)C1=CO[C@@H](O[C@@H]2O[C@H](CO)[C@@H](O)[C@H](O)[C@H]2O)[C@@H]2[C@@H](C)[C@@H](O)C[C@H]12 = 0.979
CC(=O)Oc1ccc2c(c1)CCC1C2CC[C@@]2(C)C1CC[C@@H]2OC(C)=O (stereo not given in full) = 0.958
COc1c2occc2cc2ccc(=O)oc12 = 0.88
CC(=O)O[C@@H]1CC2C(C)(C)C(=O)[C@@H]3O[C@@H]3[C@]2(C)C2CC[C@]3(C)C(=CC(=O)O[C@H]3c3ccoc3)[C@@]21C (stereo not given in full) = 0.987
CC(=O)N[C@@H](CC(=O)O)C(=O)O = 1.02
CC1(C)C=Cc2c(cc3occ(-c4ccc5c(c4)OCO5)c(=O)c3c2O)O1 = 1.02

Entry CC(=O)OC1CCC2C3CCc4cc(O)ccc4C3CCC12C (stereo not given) : reported normalized growth = ?
1

Entry C[C@]12CCC3c4ccc(O)cc4CCC3C1CC[C@@H]2OC(=O)CCC1CCCC1 (stereo not given in full) : reported normalized growth = ?
0.996

Entry `CC(C)=CCc1c(O)cc2occ(-c3ccc4c(c3)OCO4)c(=O)c2c1O` : reported normalized growth = ?
1.02

Entry `CC1=C2[C@](C)(C=CC1=O)C[C@H](O)[C@H]1[C@H](C)C(=O)O[C@]21C` : reported normalized growth = ?
1.04
